Biological target: recombinant full-length human prolyl endopeptidase (PREP) (Homo sapiens)
Construct: To recombinant full-length human prolyl endopeptidase (PREP, R&D-Systems, 4308-SE)
Sequence (P48147 1-710): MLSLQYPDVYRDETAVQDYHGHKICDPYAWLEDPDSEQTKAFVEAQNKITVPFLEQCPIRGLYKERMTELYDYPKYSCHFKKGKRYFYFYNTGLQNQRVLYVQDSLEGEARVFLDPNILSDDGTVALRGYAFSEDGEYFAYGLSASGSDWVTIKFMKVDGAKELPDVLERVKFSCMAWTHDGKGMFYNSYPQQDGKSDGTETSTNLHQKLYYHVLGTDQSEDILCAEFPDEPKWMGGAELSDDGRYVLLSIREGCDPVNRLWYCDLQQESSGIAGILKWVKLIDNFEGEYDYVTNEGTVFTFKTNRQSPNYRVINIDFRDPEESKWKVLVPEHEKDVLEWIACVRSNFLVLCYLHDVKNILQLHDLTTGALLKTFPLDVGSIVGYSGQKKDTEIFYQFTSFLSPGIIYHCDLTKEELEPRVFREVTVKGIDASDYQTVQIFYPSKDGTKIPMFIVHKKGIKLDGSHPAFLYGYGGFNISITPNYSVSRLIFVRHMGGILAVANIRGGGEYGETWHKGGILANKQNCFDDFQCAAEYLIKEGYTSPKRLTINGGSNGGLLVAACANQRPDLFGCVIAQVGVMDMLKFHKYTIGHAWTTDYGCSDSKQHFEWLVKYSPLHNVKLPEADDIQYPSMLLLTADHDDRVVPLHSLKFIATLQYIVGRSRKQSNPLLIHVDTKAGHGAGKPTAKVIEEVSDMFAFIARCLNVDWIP
Experiment: Biochemical human prolyl endopeptidase (PREP) assay with fluorescently labelled substrate
Conditions: substrate Z-Gly-Pro-AMC 50 μM, 32° C., 60 min; some as mean values from multiple independent determinations
measured-endpoint: IC50 (nM)

The cases that follow already have their IC50 on record.
O=C(C1CCCc2nn(Cc3ccc(C(F)(F)F)nc3)c(=O)n21)N1CCCC1 (racemic) [Example 84] | 5.7
O=C(C1C(C(F)(F)F)CCc2nn(Cc3ccc(Cl)cn3)c(=O)n21)N1CC[C@H](F)C1 (single isomer, unassigned) [Example 299] | 3.5
COc1ccc(Cn2nc3n(c2=O)[C@H](C(=O)N2CC(F)C2)CCC3)cn1 | 3.1
O=C(C1CCCc2nn(Cc3cccc(F)c3)c(=O)n21)N1CCC(F)(F)C1 (racemic) | 5.6
O=C([C@@H]1CC=Cc2nn(Cc3ccc(C(F)(F)F)nc3)c(=O)n21)N1C[C@@H](F)[C@@H](F)C1 | 1.9

[I] CC1CCC(C(=O)N2CC[C@H](F)C2)n2c1nn(Cc1ccc(C(F)(F)F)nc1)c2=O (single isomer, unassigned) [Example 222]
[II] O=C([C@@H]1CCCc2nn(Cc3ccnc(C(F)(F)F)c3F)c(=O)n21)N1C[C@@H](F)[C@@H](F)C1
### Prompt # compare IC50 for I vs II ; return the one with the smaller value In your reply, give the label of the chosen option.
### Response II

[A] O=C(C1CC(C(F)(F)F)Cc2nn(Cc3ccc(Cl)nc3)c(=O)n21)N1CC(F)C1 (single isomer, unassigned) [Example 238]
[B] O=C(C1CCCc2nn(Cc3ccc(Cl)s3)c(=O)n21)N1CCCC1 (racemic)
### Prompt # compare IC50 for A vs B ; return the one with the smaller value In your reply, give the label of the chosen option.
### Response B
(B: 0.71 nM, A: 73 nM)

[1] O=C([C@@H]1CCCc2nn(Cc3ccnc(C(F)(F)F)c3F)c(=O)n21)N1CCC2CC21 (mixture of isomers)
[2] Cc1nc(C)c(Cn2nc3n(c2=O)C(C(=O)N2CCCC2)CCC3)nc1C (single isomer, unassigned) [Example 104]
[3] COc1cccc(Cn2nc3n(c2=O)C(C(=O)N2CCC(F)(F)C2)CCC3)c1 (racemic)
[4] O=C(C1CC(C(F)(F)F)Cc2nn(Cc3cncc(Cl)c3)c(=O)n21)N1CC[C@H](F)C1 (single isomer, unassigned) [Example 318]
### Prompt Returns the items ordered by IC50, from maximum to minimum. // respond by listing labels in the order requested
### Response 4, 1, 3, 2
(4: 518 nM, 1: 10 nM, 3: 5 nM, 2: 0.46 nM)
